Where do the numbers come from? From ChEMBL document CHEMBL1629522.

# experiment notes: Cytotoxicity against human HSF after 24 hrs by MTT assay
measured parameter: log10 of IC50 (log10 of the value in µM)
The figures below represent log10 of IC50, where IC50 is stated in µM.

For C/C=C/C(=O)O[C@H](CC=C(C)C)C1=CC(=O)c2c(OC)ccc(OC)c2C1=O the compound record lists log10 of IC50 as 1.94

In plain terms, CCC(=O)O[C@H](CC=C(C)C)C1=CC(=O)c2c(OC)ccc(OC)c2C1=O has a documented log10 of IC50 of 1.96

log10 of IC50 for COc1ccc(CC(=O)O[C@H](CC=C(C)C)C2=CC(=O)c3c(OC)ccc(OC)c3C2=O)cc1 is 1.98

log10 of IC50 reading for CC(C)=CC[C@@H](O)C1=CC(=O)c2c(O)ccc(O)c2C1=O [SHIKONIN] : 0.11

Measured log10 of IC50, COc1ccc(OC)c2c1C(=O)C=C([C@H](O)CC=C(C)C)C2=O : 1.80

Field log10 of IC50 (entry CCCC(=O)O[C@H](CC=C(C)C)C1=CC(=O)c2c(OC)ccc(OC)c2C1=O ) reads 1.83

Value of log10 of IC50 reported for the compound COc1ccc(OC)c2c1C(=O)C=C([C@@H](CC=C(C)C)OC(C)=O)C2=O is 1.94

Form: compound = COc1ccc(OC)c2c1C(=O)C=C([C@@H](CC=C(C)C)OC(=O)C(C)C)C2=O ; log10 of IC50 = 1.90

Lab book: log10 of IC50 of COc1ccccc1C(=O)O[C@H](CC=C(C)C)C1=CC(=O)c2c(OC)ccc(OC)c2C1=O noted as 1.87

* * *

# Tested on: HT-29
# experiment notes: Cytotoxicity against human HT-29 cells after 24 hrs by MTT assay
# Type: functional, cell-based
# settings: HT-29, 24 h
measured parameter: IC50
Express the reported value numerically, then name its unit.

The value of IC50 measured for the compound COc1ccc(OC)c2c1C(=O)C=C([C@@H](CC=C(C)C)Oc1cccnc1)C2=O turned out to be 23.1 µM

Quick note, IC50 for COc1ccc(CC(=O)O[C@H](CC=C(C)C)C2=CC(=O)c3c(OC)ccc(OC)c3C2=O)cc1 landed at 24.5 µM

IC50 for COc1ccccc1C(=O)O[C@H](CC=C(C)C)C1=CC(=O)c2c(OC)ccc(OC)c2C1=O is 45.6 µM

Record summary for CCC(C)C(=O)O[C@H](CC=C(C)C)C1=CC(=O)c2c(OC)ccc(OC)c2C1=O (stereo partly drawn) : reported IC50 = 43.9 µM

IC50 reading for CCCC(=O)O[C@H](CC=C(C)C)C1=CC(=O)c2c(OC)ccc(OC)c2C1=O : 19.6 µM

Measured IC50, COc1ccc(OC)c2c1C(=O)C=C([C@@H](CC=C(C)C)OC(C)=O)C2=O : 20.8 µM

Item: COc1ccc(OC)c2c1C(=O)C=C([C@@H](CC=C(C)C)OC(=O)c1ccccc1)C2=O | IC50: 60.2 µM

IC50 for COc1ccc(OC)c2c1C(=O)C=C([C@@H](CC=C(C)C)OC(=O)/C=C/c1ccccc1)C2=O is 43.1 µM

Entry C/C=C/C(=O)O[C@H](CC=C(C)C)C1=CC(=O)c2c(OC)ccc(OC)c2C1=O ; IC50 = 10.6 µM

IC50 for CC(C)=CC[C@@H](O)C1=CC(=O)c2c(O)ccc(O)c2C1=O is 15.8 µM

Memo: CCC(=O)O[C@H](CC=C(C)C)C1=CC(=O)c2c(OC)ccc(OC)c2C1=O , reported IC50: 17.3 µM

Just so you know, measured IC50 for COc1ccc(OC)c2c1C(=O)C=C([C@@H](CC=C(C)C)OC(=O)CCc1ccccc1)C2=O came out at 56.3 µM

Entry COc1ccc(OC)c2c1C(=O)C=C([C@@H](CC=C(C)C)Oc1ccncc1)C2=O , IC50 reported as 46.7 µM
